Test system: STK35
experimental_parameters: concentration: 1 μM, replicates: in singlicate; n = 1;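 also: KINOMEscan kinase panel screen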
measurement_label: %Inh (%)
API: value field is a number in %; no unit string.

Field: example entries. Status: answers known.
>>> assay_value("CN(C)CCNS(=O)(=O)c1ccc(-c2ccnc3[nH]ccc23)cc1 [GSK977620]")
15
>>> assay_value("Cc1ccc(Nc2ccnc(Nc3ccc(C)c(F)c3)n2)cc1O.Cl [GW582868]")
99.5
>>> assay_value("O=C(O)C(F)(F)F.O=c1[nH]ccc2nc(N[C@@H]3CCNC3)nc(Nc3cc(Cl)cc(Cl)c3)c12 [GSK2188764]")
46
>>> assay_value("Fc1cc(Cl)ccc1Nc1ccnc2cc(-c3ccc(CN4CCSCC4)o3)ccc12 [GW560106]")
20
>>> assay_value("COc1cc(Nc2ccnc3cc(-c4ccncc4)ccc23)cc(OC)c1OC.Cl [GW494610]")
6
>>> assay_value("O=C(Nc1n[nH]c2nc(-c3cccc(O)c3)ccc12)C1CC1 [SB-711805]")
0

QUERY: Value lookup for %Inh; key = Cc1ccc(NC(=O)c2ccc(Cl)c(Cl)c2)cc1-c1ccc(C(=O)Nc2ccncc2)cc1 [GSK1398460]
RESULT: 0

QUERY: # get_value(readout='%Inh', item= CCNc1nccc(-c2c(-c3ccc(F)cc3)ncn2C2CCN(C)CC2)n1 )
RESULT: 0

QUERY: I would be grateful if you could share the reported %Inh for COc1ccc(C2=C(Nc3cccc(O)c3)C(=O)NC2=O)cc1 [SB-390766] .
RESULT: 0

QUERY: Which value of %Inh has been reported for COc1cc(Nc2nccc(N3CCC(NS(=O)(=O)c4ccc(NC(C)=O)cc4)CC3)n2)cc(OC)c1OC [GSK1379825] in the records?
RESULT: 52

QUERY: Query (compound): COc1cccc(NC(=O)NCCNc2ccnc(Nc3ccc(F)cc3)n2)c1 [GSK1379879] ; field requested: %Inh
RESULT: 1

QUERY: Return reported %Inh; argument: CNc1nccc(-c2ccc3c(N)n[nH]c3c2)n1 [GSK2206003]
RESULT: 0

QUERY: Which %Inh reading was recorded for the compound O=C(Nc1n[nH]c2cc(-c3cccs3)ccc12)C1CC1 [SB-731284] ?
RESULT: 15

QUERY: Value lookup for %Inh; key = Cc1ccc(NC(=O)c2ccnc(N3CCCCC3)c2)cc1-c1ccc(C(=O)NCC2CC2)cc1 [GW775610]
RESULT: 0

QUERY: Any idea what its %Inh is? The compound is Cc1ccc(C)c(NC(=O)Nc2ccc(C)c(-c3ccc(C(=O)Nc4ccncc4)cc3)c2)c1 [GSK1398473]
RESULT: 6

QUERY: What value of measured %Inh is listed for Nc1cccc(-c2ccc3c(N)n[nH]c3c2)c1 [GSK2193613] ?
RESULT: 0

QUERY: Recorded %Inh of CN(c1ccc(F)c(NC(=O)c2cccc(OC(C)(C)C#N)c2Cl)c1)c1ccc2nc(NC(=O)C3CC3)sc2n1 , please.
RESULT: 0

QUERY: Reported %Inh for Cc1cc(-c2ccnc(Nc3cccc(C#N)c3)n2)cc(C)c1O [GSK1440913] : what is it?
RESULT: 25

QUERY: Requested read-out: %Inh. Entry: Cc1cc(-c2c(-c3ccc(F)cc3)ncn2CCCN2CCOCC2)nc(N)n1 [SB-222517]
RESULT: 0

QUERY: I'd like to know its %Inh. The compound in question is O=C(Nc1n[nH]c2nc(-c3ccccc3)ccc12)C1CC1 [SB-708999]
RESULT: 1

QUERY: Param item = Cn1cc(-c2ccc3c(c2)CCN3C(=O)Cc2cc(F)cc(F)c2F)c2c(N)ncnc21 [GSK2634140] ; retrieve measured %Inh.
RESULT: 0

QUERY: Entry Nc1ncc(-c2ccc3nccc(-c4ccncc4)c3c2)cc1S(=O)(=O)N1CCCCC1 [GSK1693850] has what %Inh?
RESULT: 0

QUERY: Param item = Cc1cccc(Nc2nc(NCCN)ncc2C(N)=O)c1 [GSK1292139] ; retrieve measured %Inh.
RESULT: 34

###

Documented %Inh across a set of compounds
Test system: MKNK2
experimental_parameters: concentration: 1 μM, replicates: in singlicate; n = 1
Form entry: value (%) — number only.

A selection of reference data follows.
>>> assay_value("Nc1ncc(-c2ccc3nccc(-c4ccncc4)c3c2)cc1S(=O)(=O)N1CCCCC1")
6
>>> assay_value("Cn1cc(-c2ccc3c(c2)CCN3C(=O)Cc2cc(F)cc(C(F)(F)F)c2)c2c(N)ncnc21")
2
>>> assay_value("Cl.O=C(Nc1ccc(Oc2ccc3[nH]c(NC(=O)c4ccco4)nc3c2)cc1)Nc1cc(C(F)(F)F)ccc1F")
93.5

QUERY: Please look up its %Inh: CN(C)CCNS(=O)(=O)c1ccc(-c2ccnc3[nH]ccc23)cc1
RESULT: 77

QUERY: // %Inh lookup, key: CCn1c(-c2nonc2N)nc2c(-c3ccccc3)ncc(OCCCN)c21.O=C(O)C(F)(F)F.O=C(O)C(F)(F)F
RESULT: 1

###

System: TNK1
experimental_parameters: concentration: 1 μM, replicates: in singlicate; n = 1
Here, each record is paired with measured %Inh data.
Your answer is read as %, so omit the unit and give the number.

Examples from the recorded data:
>>> assay_value("Cn1cc(-c2ccc3c(c2)CCN3C(=O)Cc2cc(F)cc(C(F)(F)F)c2)c2c(N)ncnc21")
10
>>> assay_value("O=C(Nc1c(F)cccc1F)c1cc(C(=O)c2ccccc2F)c[nH]1")
8
>>> assay_value("Nc1ncnc2scc(-c3ccc(NC(=O)Cc4cc(F)ccc4F)cc3)c12.O=C(O)C(F)(F)F")
44

Turning to the following molecule.
QUERY: Request the reported %Inh associated with O=C(O)C(F)(F)F.O=c1[nH]ccc2nc(N[C@@H]3CCNC3)nc(Nc3ccc4c(c3)S(=O)(=O)CC4)c12
RESULT: 31

###

System: CLK4
experimental_parameters: concentration: 1 μM, replicates: in singlicate; n = 1
measurement_label: %Inh
Answer shape: numeric part, then the unit.

>>> assay_value("c1ccc(Oc2ccc(Nc3ccnc4cc(-c5ccc(CN6CCCCC6)o5)ccc34)cc2)nc1 [GW567143]")
"6%"
>>> assay_value("O=C(Nc1n[nH]c2nc(-c3cccc(O)c3)ccc12)C1CC1 [SB-711805]")
"0%"
>>> assay_value("Cc1ccccc1CC(=O)N1CCc2cc(-c3cn(C)c4ncnc(N)c34)ccc21 [GSK2603346]")
"0%"
>>> assay_value("Fc1cc(Cl)ccc1Nc1ccnc2cc(-c3ccc(CN4CCSCC4)o3)ccc12 [GW560106]")
"22%"

QUERY: // %Inh lookup, key: CC(C)NCC(Cc1ccccc1)NC(=O)c1cc(Br)c(-c2ccnc3[nH]ccc23)s1.Cl.Cl (centres unmarked) [GSK1383281]
RESULT: 25%

QUERY: // %Inh lookup, key: COC(=O)Nc1nc2ccc(Oc3ccc(CC(=O)Nc4cc(C(F)(F)F)ccc4F)cc3)cc2[nH]1 [GW680903]
RESULT: 3%

QUERY: Value lookup for %Inh; key = CCn1cnc2c(NCc3ccccc3)ncnc21 [SKF-96418]
RESULT: 14%

QUERY: Would you mind telling me what %Inh value was observed for CN(c1ccc(NC(=O)N2CCN(CCCN3CCOCC3)CC2)cc1)c1ccnc(Nc2ccc(CS(C)(=O)=O)cc2)n1.Cl [GW830899] ?
RESULT: 0%

###

Consider the following molecules and their measured %Inh readings.
Test system: EPHA5
experimental_parameters: concentration: 1 μM, replicates: in singlicate; n = 1
The answer is to be given in %; state only the numeric part.

Some solved entries appear below for comparison.
>>> assay_value("Cc1cc(-c2c(-c3ccc(F)cc3)ncn2CCCN2CCOCC2)nc(N)n1 [SB-222517]")
9
>>> assay_value("CN(c1ccc(F)c(NC(=O)c2cccc(OC(C)(C)C#N)c2Cl)c1)c1ccc2nc(NC(=O)C3CC3)sc2n1")
0
>>> assay_value("COC(=O)Nc1nc2ccc(Oc3ccc(NC(=O)Nc4cc(C(F)(F)F)ccc4F)cc3)cc2[nH]1.Cl [GW654607]")
66
>>> assay_value("Nc1ncnc2scc(-c3ccc(NC(=O)Cc4cc(F)ccc4F)cc3)c12.O=C(O)C(F)(F)F [SB-731254-M]")
0
>>> assay_value("N#Cc1cnc2cc(-c3cnc(CNCCN4CCOCC4)s3)ccc2c1Nc1ccc(Oc2ccccc2)cc1 [GW664114]")
0
>>> assay_value("CC(C)c1nc(-c2ccc(F)c(NS(=O)(=O)c3c(F)cccc3F)c2)c(-c2ccnc(Nc3ccc(N4CCOCC4)nc3)n2)s1 [GSK1804250]")
1
>>> assay_value("COc1cccc(CC(=O)N2CCc3cc(-c4cn(C)c5ncnc(N)c45)ccc32)c1 [GSK2608899]")
5
>>> assay_value("CC(C)(C)c1ccc(C(=O)Nc2cn3cc(-n4ccnc4)ccc3n2)cc1")
0
>>> assay_value("c1ccc(Oc2ccc(Nc3ccnc4cc(-c5ccc(CN6CCCCC6)o5)ccc34)cc2)nc1 [GW567143]")
0
>>> assay_value("CC(C)c1nc(-c2cccc(NS(=O)(=O)c3c(F)cccc3F)c2)c(-c2ccnc(Nc3ccc(N4CCOCC4)nc3)n2)s1.Cl [GSK1723980]")
0

QUERY: Reported %Inh, molecule Cc1cccc(Nc2nc(NCCN)ncc2C(N)=O)c1 [GSK1292139] : ____
RESULT: 0

QUERY: Please look up its %Inh: O=C(Nc1n[nH]c2nc(-c3ccccc3)ccc12)C1CC1 [SB-708999]
RESULT: 2

QUERY: Return reported %Inh; argument: Nc1cccc(-c2ccc3c(N)n[nH]c3c2)c1 [GSK2193613]
RESULT: 0

QUERY: For the molecule CN(C)c1ncnc2nc[nH]c12 [SKF-31736] , what %Inh is on record?
RESULT: 0

QUERY: # input molecule: Cn1cc(-c2ccc3c(c2)CCN3C(=O)Cc2cc(F)cc(C(F)(F)F)c2)c2c(N)ncnc21 [GSK2635225] ; wanted: its %Inh
RESULT: 0

QUERY: Could you tell me which %Inh is on file for COc1cccc(C2=C(Nc3cccc(O)c3)C(=O)NC2=O)c1 [SB-390771] ?
RESULT: 0

QUERY: I am curious: what %Inh value has been reported for CC(C)NCC(Cc1ccccc1)NC(=O)c1cc(Br)c(-c2ccnc3[nH]ccc23)s1.Cl.Cl (centres unmarked) [GSK1383281] ?
RESULT: 0
